# credit: patent US20210292393A1

target: SARS-CoV-2 full length spike protein, V367F mutant, expressed on CHO cells (SARS-CoV-2, UniProt P0DTC2 14-1273)
Would you kindly list median fluorescence intensity, fold over isotype control for each of these binders?

* antibody 506 (antibody, V domains shown) VH: QITLKESGPTLVKPTQTLTLTCTFSGFSLSTSGVGVGWIRQPPGKALEWLALIYWDDDKRYSPSLKSRLTITKDTSKNQVVLTMTNMDPVDTATYYCAHHSLSSIFDYWGQGTLVTVSS VL: QSALTQPASVSGSPGQSITISCTGTSSDVGDYNYVSWYQQHPGKAPKLMIYEVSNRPSGVSNRFSGSKSGNTASLTISGLQAEDEADYYCSSYTSSSTVFGGGTKLTVLG | 42.3 fold over isotype
* antibody 482 (antibody, V domains shown) VH: EVQLVESGGGLVQPGGSLRLSCAASGFTFSSYWMTWVRQAPGKGLEWVANIKQDGSEKYYVDSVKGRFTISRDNAKNSLYLQMNSLRAEDTAVYYCARGVGSWYLGFDYWGQGTLVTVSS VL: NFMLTQPHSVSESPGKTVTISCTGSSGSIASNYVQWYQQRPGSAPTTVIYEDNQRPSGVPDRFSGSIDSSSNSASLTISGLKTEDEADYYCQSYDGSSYVFGTGTKVTVL | 2.89 fold over isotype
* antibody 467 (antibody, V domains shown) VH: QVQLVQSGAEVKKPGASVKVSCKASGYTFISYGISWVRQAPGQGLEWMGWISAYNGNTNYAQKLQGRVTMTTDTSTSTAYMELRSLRSDDTAVYYCARGLWPGYYYGSGSYSAFHIWGQGTMVTVSS VL: QSALTQPPSASGSPGQSVSISCTGTSSDVGGYNYVSWYQQHPGKAPKLMIYEVSKRPSGVPDRFSGSKSGNTASLTVSGLQAEDEADYYCSSYAGSNKVFGGGTKLTVL | 30.6 fold over isotype

# input for lookup
Qu. Bench note: what median fluorescence intensity, fold over isotype control did antibody 501 (antibody, V domains shown) VH: QVQLVQSGAEVKKPGASVKVSCKASGYTFTSYYVHWVRQAPGQSLEWMGVISPSTGSTTYAQNFQGRVTMTRDTSTTTVYMELSSLRSEDTAVYYCARDDYYDSTRYFDLWGRGTLVTVSS VL: QSALTQPASVSGSPGQSISFSCTGTSSDIGAYNYVSWYQQHPGRAPKLMIYDVGNRPSGVSNRFSGSKSGNTASLTISGLQAEDEADYYCSSYTSSSTQVFGTGTKVTVL show?
Ans. 30 fold over isotype
